# Test system: NCI-H23 lung
# Experiment Description: NCI-60 one-dose screen, 48 h (100 = growth as untreated, 0 = no growth, -100 = all killed)
# Particulars: 10 µM unless noted
This is part of a sample that, as a whole, favours compounds with a hit. Of some 83,000 tested, about 20% had one in any assay.
Measured growth values are reported for all entries that follow.
Write the number in % without appending the unit.

Consider the reported growth for these compounds:
> print(dat)
                   compound.structure.string  assay.target  value.type  unit.annotation  readout.number
 1  COc1cc2nccc(Oc3ccc(NC(=O)Nc4cc(C)on4)c(Cl)c3)c2cc1OC  NCI-H23 lung      growth                %            28.8
 2  Cc1cc(Nc2nc(N[C@@H](C)c3ncc(F)cn3)ncc2Cl)n[nH]1  NCI-H23 lung      growth                %            69.9
 3  CC(C)NC[C@@H](C(=O)N1CCN(c2ncnc3c2[C@H](C)C[C@H]3O)CC1)c1ccc(Cl)cc1  NCI-H23 lung      growth                %            58.7
 4  Cn1ncc(Cl)c1-c1cc(C(=O)N[C@H](CN)Cc2cccc(F)c2)sc1Cl  NCI-H23 lung      growth                %            33.4
 5  Cc1cc2c(-c3nc4ccccn4c3Nc3cccc4ccccc34)c(O)c(O)cc2c(O)c1-c1c(C)cc2c(-c3nc4ccccn4c3Nc3cccc4ccccc34)c(O)c(O)cc2c1O  NCI-H23 lung      growth                %            12.4
 6  CC(=O)Nc1cccc(-n2c(=O)n(C3CC3)c(=O)c3c(Nc4ccc(I)cc4F)n(C)c(=O)c(C)c32)c1  NCI-H23 lung      growth                %            17.1
 7  Cc1c(Cn2c(C)nc3c(C(=O)O)cc(N4CCOCC4)cc32)cccc1C(F)(F)F  NCI-H23 lung      growth                %             105
 8  COc1ccc2c(CCCCC(c3ccccc3)c3ccccc3)c3[n+](cc2c1OC)CCc1cc2c(cc1-3)OCO2  NCI-H23 lung      growth                %           -66.5
 9  O=C(N/N=C/c1ccc(Cl)cc1)c1cc(-c2cc3ccccc3o2)nn1-c1ccccc1  NCI-H23 lung      growth                %              92
10  COCc1c(-c2ccc(NC(=O)Nc3cc(C(F)(F)F)ccc3F)c(F)c2)c2c(N)ncnn2c1CN1CCOCC1  NCI-H23 lung      growth                %           -53.4

State the recorded growth for this entry: `CN(C)CCOC(=O)Nc1nc2ccc(Sc3ccccc3)cc2[nH]1` 44

----------
# Tested on: RPMI-8226 leukemia
# Experiment Description: NCI-60 one-dose screen, 48 h (100 = growth as untreated, 0 = no growth, -100 = all killed)
# Particulars: 10 µM unless noted
The panel holds about 83,000 compounds, 20% with a hit somewhere; the sample as a whole holds those more often.
Everything with growth lower than 30% is Condition not met; everything else, including exactly 30%, is Condition met.

# example entries with known answers
Compound	Category
Clc1ccc2c(NCCCNCc3ccc4c(c3)OCO4)ccnc2c1	Condition not met
CN1CCN(Cc2ccc(NC(=O)c3[nH]ncc3Nc3ncnc4sc5c(c34)CCCC5)cc2)CC1	Condition not met
COc1ccc(C(=O)c2cc(OC)c(OC)c(OC)c2)cc1/C=C/C(=O)c1ccc(F)cc1	Condition not met
COc1cc2c(cc1OCCCN1Cc3ccc(OCCCCC(=O)N4CCC(CCN5CCCC5)CC4)cc3C1)N=C(N)C21CCCC1	Condition met
COc1cc2ncnc(Nc3cccc(Cl)c3F)c2cc1OC(=O)N1CCN(C)C[C@H]1C	Condition met
O=C(O)c1ccc2c(c1)nc(Nc1cccc(Cl)c1)c1ccncc12	Condition not met
CC#CC(=O)N1CCC[C@H]1c1nc(-c2ccc(C(=O)Nc3ccccn3)cc2)c2c(N)nccn12	Condition met
COCc1c(-c2ccc(NC(=O)Nc3cc(C(F)(F)F)ccc3F)c(F)c2)c2c(N)ncnn2c1CN1CCOCC1	Condition not met
CC1(COc2ccc3c(c2)ncn3-c2ccc3cccc(N4CCC(N)CC4)c3n2)COC1	Condition not met
C=CCCCC(=O)CCC(=O)OCC1O[C@@H](O[C@@H]2C(O)[C@@H](OC(C)=O)C(C)O[C@H]2O[C@H](CC=C)CCCCC)C(O)[C@@H](OC(=O)/C(C)=C/C)[C@@H]1OC(=O)/C=C/c1ccccc1 (some centres not stated)	Condition not met

Determine whether this compound has growth no lower than 30%: `COc1cc(Nc2ncc3c(n2)-c2ccc(Cl)cc2C(c2c(F)cccc2OC)=NC3)ccc1C(=O)O` Condition met

Consider next the compound `N#Cc1ccc(-n2nnc3ccccc32)cc1C#N` in the same way. Condition met

Do the same for `Cc1ccc(N)cc1CN1C(=O)c2ccccc2C1=O` please Condition met

For `Cc1cccc(Cl)c1NC(=O)c1cnc(Nc2cc(N3CCOCC3)cc(N3CCOCC3)c2)s1` then? Condition met

Now try `CC(C)(C)c1ccc(Cn2cc(CSc3nc4ccccc4s3)nn2)cc1` . Condition met

What about this compound? `C1=C\COCc2cc(ccc2OCCN2CCCC2)Nc2nccc(n2)-c2cccc(c2)COC/1` Condition not met

----------
# Test system: HCT-15 colon
# Experiment Description: NCI-60 one-dose screen, 48 h
# Particulars: 10 µM unless noted
About 83,000 compounds went through this panel and 20% of them were active in at least one assay; those are over-represented in the sample as a whole. Calls of active or inactive are those of the source. How the source made its calls: active means growth percent below 10; inactive means the rest.
Select the correct class. Options are true (1) for active, false (0) for inactive and nothing else.

> print(dat)
                                   compound  assay.target   category
1  CCN(CC)CCCC(C)Nc1cc(-c2ccc(C(F)(F)F)cc2)c(C#N)c2nc3ccccc3n12 (stereo unspecified)  HCT-15 colon   true (1)
2  C[N+](C)(CCOC(c1ccccc1)c1ccccc1)CC(=O)OCc1ccccc1  HCT-15 colon  false (0)
3  CC(=O)O[C@]1(C)C[C@H](O)[C@]2(O)C=CO[C@H](O[C@@H]3O[C@H](CO)[C@@H](O)[C@H](O)[C@H]3O)[C@@H]21  HCT-15 colon  false (0)
4      COc1cc2nc(Nc3cccc(Cl)c3)nc(N)c2cc1OC  HCT-15 colon   true (1)
5  NC(=O)Nc1cc(-c2cccc(F)c2)sc1C(=O)N[C@H]1CCCNC1  HCT-15 colon   true (1)

Next up:
Look up the recorded call for `CC(C)[C@@H](C)/C=C/[C@@H](C)[C@H]1CCC2=C3C=CC4=CC(=O)CC[C@]4(C)[C@H]3CC[C@@]21C` in this test. false (0)

----------
# Test system: HOP-62 NSCLC
# Experiment Description: NCI-60 one-dose screen, 48 h
# Particulars: 10 µM unless noted
Compounds without any hit were thinned out: in the full panel of roughly 83,000, 20% have a hit. The source made the active and inactive calls. How the source made its calls: active means growth percent below 10; inactive means the rest.
Classes to choose from: class 1 (active), class 0 (inactive)

Below are worked cases with known answers.
> print(dat)
                                   compound  category
1                 COc1cc2c3c(c1)nc(C)n3CCC2   class 0
2  CN1[C@@H]2CC[C@H]1/C(=C\c1ccccc1)C1=C2[C@@H](c2ccccc2)C(C#N)=C(N)O1   class 0
3  O=C(NOC[C@H](O)CO)c1ccc(F)c(F)c1Nc1ccc(I)cc1F   class 0
4  Cc1ccsc1C(NC(=O)c1ccccc1)c1cc(Cl)c2cccnc2c1O (centres undefined)   class 0
5  C[C@@]1(C(=O)Nc2ccc(F)nc2)CCCN1c1nc(Nc2cc(C3CC3)[nH]n2)c2cccn2n1   class 0

Now look at this one.
# fetch the recorded call for `O=C(c1ccc(F)c(F)c1Nc1ccc(I)cc1F)N1CC(O)([C@@H]2CCCCN2)C1` here class 0

----------
# Test system: UACC-257 melanoma
# Experiment Description: NCI-60 one-dose screen, 48 h (100 = growth as untreated, 0 = no growth, -100 = all killed)
# Particulars: 10 µM unless noted
# Experimental: Cells are grown in 96 well plates and exposed to the test compound for 48 hours. Compounds are tested at a single concentration, which is 10^-5 M for most compounds. The reported endpoint is percent growth (GI% or GIPRCNT), where numbers from 0 - 100% represent growth inhibition, and numbers from -100% - 0 represent cell death. For example, a value of 40 represents 60% growth inhibition. A value of 0 means no net growth occurred over the course of the experiment. […]
The panel holds about 83,000 compounds, 20% with a hit somewhere; the sample as a whole holds those more often.
Think of 50% as a floor: if growth stands on it or above, it is yes (1); beneath it, no (0).

Field: example entries. Status: answers known.
Molecule	Category
CN1CCN(c2ccc(OC(F)(F)F)c(Nc3ncc4c(n3)-c3c(c(C(N)=O)nn3CCO)CC4)c2)CC1	no (0)
O=C(Nc1cccc(Cl)c1)Nc1ncc(CCNc2ncnc3ccsc23)s1	no (0)
COc1cc2ncnc(Nc3ccc(O)cc3)c2cc1OC	yes (1)
CCCCCCCC12Cc3ccccc3C1=Nc1c(c3ccccc3n1C)C2=O (configuration not stated)	yes (1)
CCN1CCN(Cc2ccc(NC(=O)Nc3nc(-c4cc(OC)c(OC)c(OC)c4)cs3)cc2C(F)(F)F)CC1	no (0)

Please indicate if the recorded growth for `CO[C@H]1C[C@@H]2CC[C@@H](C)[C@@](O)(O2)C(=O)C(=O)N2CCCC[C@H]2C(=O)O[C@H]([C@H](C)C[C@@H]2CC[C@@H](OP(C)(C)=O)[C@H](OC)C2)CC(=O)[C@H](C)/C=C(\C)[C@@H](O)[C@@H](OC)C(=O)[C@H](C)C[C@H](C)\C=C/C=C/C=C/1C` meets or exceeds 50%. no (0)

Next: `NC1(C(=O)N[C@@H](CCO)c2ccc(Cl)cc2)CCN(c2ncnc3[nH]ccc23)CC1` no (0)

Another molecule to look at: `CCc1cnn2c(NCc3ccc[n+]([O-])c3)cc(N3CCCC[C@H]3CCO)nc12` no (0)

Try this molecule too: `CNC(=O)c1ccc(Nc2ncc(C(F)(F)F)c(NCc3nccnc3N(C)S(C)(=O)=O)n2)cc1` no (0)

How about `CC(C)(C)c1ccc(Cn2cc(CSc3nc4ccccc4s3)nn2)cc1` ? yes (1)

Param item: `O=C(c1ccc(/C=C/c2n[nH]c3ccccc23)cc1)N1CCNCC1` no (0)

// same read-out, input: `CCOc1cc2ncc(C#N)c(Nc3ccc(OCc4ccccn4)c(Cl)c3)c2cc1NC(=O)/C=C/CN(C)C` yes (1)
